Target: T1, human DLL3 on DLL3-expressing tumor cell lines (human, UniProt Q9NYJ7 27-618)
T1 sequence: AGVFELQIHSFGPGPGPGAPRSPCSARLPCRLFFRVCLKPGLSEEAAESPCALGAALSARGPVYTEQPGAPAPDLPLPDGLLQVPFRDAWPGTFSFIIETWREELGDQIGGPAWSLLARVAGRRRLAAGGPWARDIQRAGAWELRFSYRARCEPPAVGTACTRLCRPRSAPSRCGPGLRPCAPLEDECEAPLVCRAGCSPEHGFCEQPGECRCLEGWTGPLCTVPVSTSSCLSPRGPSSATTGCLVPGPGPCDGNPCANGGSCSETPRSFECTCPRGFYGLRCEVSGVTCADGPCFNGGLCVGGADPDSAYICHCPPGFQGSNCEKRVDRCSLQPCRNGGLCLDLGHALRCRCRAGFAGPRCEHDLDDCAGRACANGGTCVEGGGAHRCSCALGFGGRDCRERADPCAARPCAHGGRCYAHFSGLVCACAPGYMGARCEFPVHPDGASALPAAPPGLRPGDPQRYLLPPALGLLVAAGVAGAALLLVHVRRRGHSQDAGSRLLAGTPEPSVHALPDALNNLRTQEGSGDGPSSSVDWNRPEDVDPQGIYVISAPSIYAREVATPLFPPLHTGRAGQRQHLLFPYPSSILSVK
Assay: cell-based or functional assay
List of DMS-153 TDCC EC50 values.

Solved cases (3 shown):
binder	DMS-153 TDCC EC50
2C04 anti-DLL3 trispecific protein (other, not shown: linker 1808, anti-albumin sdAb, linker 1808, anti-CD3 fragment, His6 1819) EVQLVESGGGLVQPGGSLTLSCVASGSTSSRNAMGWYRRAPGKQRELVAGISSDGSKLYADSVKGRFTISRDNAKNSVYLQMNSLRAEDTAVYYCYYFRTVLGSSMRYWGQGTLVTVSS	43 pM
1H012 anti-DLL3 trispecific protein (other, also called 1H12; not shown: linker 1808, anti-albumin sdAb, linker 1808, anti-CD3 fragment, His6 1819) EVQLVESGGGLVQPGGSLTLSCVASGSTSSINAMGWYRRAPGKQRELVAGISSDGSKVYVDSVKGRFTISRDNAKNSVYLQMNSLRAEDTAVYYCYYFRTVSGSSMPYWGQGTLVTVSS	63 pM
4D09 anti-DLL3 trispecific protein (other, not shown: linker 1808, anti-albumin sdAb, linker 1808, anti-CD3 fragment, His6 1819) EVQLVESGGGLVQPGGSLTLSCAASGSSVKFLSMAWYRQAPGKKRELVAGISADGSTDYILSVKGRFTISRDNAKNSVYLQMNSLRAEDTAVYYCYAYEWTTRYTYWGQGTLVTVSS	60 pM

Query binder follows.
## Input Any idea what its DMS-153 TDCC EC50 is? The binder is 2E02 anti-DLL3 trispecific protein (other, not shown: linker 1808, anti-albumin sdAb, linker 1808, anti-CD3 fragment, His6 1819) EVQLVESGGGLVQPGGSLTLSCVASGSTSAINAMGWYRRAPGKQRELVAGISSDGSKVYVDSVKGRFTISRDNAKNSVYLQMNSLRAEDTAVYYCYYFRTVSGSSQRYWGQGTLVTVSS
## Output 120 pM
